# subject-of-test: CDK2/Cyclin E1 (Homo sapiens, UniProt P24941)
# protocol: NanoBRET live-cell target engagement, CDK2-NanoLuc/Cyclin E1 in HEK-293
# Type: binding
# condition-summary: CDK2/E1; 10µM; read-out: Inhibition at 10µM (%) Replicate 1
Class 1: inhibition at 10 µM at least 40%. Class -1: inhibition at 10 µM below 40%.

# input Identify whether the reported inhibition at 10 µM of the following compound is 40% or greater: CCN1CCN(Cc2ccc(NC(=O)Nc3ccc(Oc4cc(NC)ncn4)cc3)cc2C(F)(F)F)CC1 [AST-487]
# output -1

# input Decide: is the reported value of inhibition at 10 µM for COc1cc(F)ccc1-c1cc(Nc2cc(CS(C)(=N)=O)ccn2)ncc1F (stereo not drawn) [BAY-1251152] equal to or greater than 40%?
# output 1

# input Could you tell me if the measured inhibition at 10 µM of COc1cc(F)ccc1-c1ncnc(Nc2cccc(C[S@](C)(=N)=O)c2)n1 [Atuveciclib] reaches 40% or more?
# output 1

# input Hi team, for CCCCOc1c(C(=O)c2c(F)cc(C)cc2F)c[nH]c2nncc1-2 [BMS-265246] , is the recorded inhibition at 10 µM at or above 40%?
# output 1

# input Please check the record CC(C)c1cnn2c(NCc3ccccc3)cc(NCCCCCCN)nc12 [BS-181] and state if its inhibition at 10 µM is at or above 40%.
# output 1
